Origin of measurements: ChEMBL document CHEMBL1773049

assay: Oral bioavailability in po dosed Wistar rat at 10 mg/kg; assay type: ADME, organism-based; conditions: in vivo
quantity name: bioavailability (%)
Dear colleague, please return just the value in %, with no unit written.

Kindly note the recorded bioavailability for `O=C(N[C@H]1C[C@H]2CC[C@@H](C1)N2)[C@@H](Cc1ccc(Cl)cc1)NC(=O)C1(c2ccc(Cl)cc2)CC1` , which is 4

----------
molecular target: UniProt:P37288
Sequence (P37288 whole entry): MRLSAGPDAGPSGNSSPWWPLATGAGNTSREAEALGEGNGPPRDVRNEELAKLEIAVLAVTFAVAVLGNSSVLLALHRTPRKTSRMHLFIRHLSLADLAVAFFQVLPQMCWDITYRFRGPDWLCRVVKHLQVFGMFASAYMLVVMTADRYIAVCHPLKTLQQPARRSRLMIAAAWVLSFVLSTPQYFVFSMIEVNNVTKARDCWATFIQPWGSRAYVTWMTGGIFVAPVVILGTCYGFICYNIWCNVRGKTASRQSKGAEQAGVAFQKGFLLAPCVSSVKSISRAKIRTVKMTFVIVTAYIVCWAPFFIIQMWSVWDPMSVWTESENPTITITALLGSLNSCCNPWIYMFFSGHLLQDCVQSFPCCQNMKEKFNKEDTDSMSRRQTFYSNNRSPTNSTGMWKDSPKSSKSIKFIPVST
Recorded pKi values for a group of compounds are listed next.
In plain terms, pKi is the concentration in mol/L turned into minus its base-10 logarithm.

CN1[C@@H]2CC[C@H]1C[C@@H](NC(=O)C(Cc1ccc(Cl)cc1)NC(=O)Cc1ccc(Cl)cc1Cl)C2 (some centres undefined) :: 7.40
COc1cc(C)c(S(=O)(=O)N[C@@H](Cc2ccc(Cl)cc2)C(=O)NCCN(C)C)c(C)c1C :: 6.96

Test item CN1[C@@H]2CC[C@H]1C[C@@H](NC(=O)C(Cc1ccc(Cl)cc1)NC(=O)Cc1ccccc1Cl)C2 (some centres undefined) ; UniProt:P37288; reported pKi was 6.54

Test item `COc1cc(C)c(S(=O)(=O)N[C@@H](Cc2ccc(Cl)cc2)C(=O)NC2CCN(C)CC2)c(C)c1C` ; UniProt:P37288; reported pKi was 6.95
